Hello, the source for this data is PubChem BioAssay (NCI), in case you need it.

- Test system: T-47D breast
- assay.overview: NCI-60 one-dose screen, 48 h (100 = growth as untreated, 0 = no growth, -100 = all killed)
- test.context: 10 µM
Compounds without any hit were thinned out: in the full panel of roughly 83,000, 20% have a hit. Activity calls are given as the source filed them. The calls were made as follows: active = growth percent below 10; inactive = the rest.
Recorded growth for the following compounds

Illustrative cases are given below, each with its answer.
>>> result("COc1ccc(NC(=O)Nc2ccc(OCC(=O)N=Nc3c(O)[nH]c4ccc([N+](=O)[O-])cc34)cc2)cc1")
"32.6% (inactive)"
>>> result("Cc1ccc(-c2ccc(SCC(=O)Nc3ccc(Cl)c(C(F)(F)F)c3)nn2)cc1")
"26.2% (inactive)"
>>> result("CC(=O)Nc1ccc(-n2cnc3cc(-c4ccc(O)cc4)ccc32)cc1C")
"32.6% (inactive)"
>>> result("C=CC(=O)Nc1ccc(C(=O)/C=C/c2ccc(N(C)CCF)cc2)c(O)c1")
"5.88% (active)"

Recorded growth (compound Cc1noc2c(Cc3ccccc3)nn(CC(=O)N/N=C/c3ccc(Cl)cc3)c(=O)c12 ): 9.05% (active)

Recorded growth (compound CC(=O)c1ccc(Nc2nc(SC(C)C)nc(-c3ccccc3)c2C#N)cc1 ): 58.7% (inactive)

Recorded growth (compound CCN1CCN(Cc2ccc(NC(=O)c3cccc(-n4cc(-c5ccc(NC(C)=O)nc5)nn4)c3)cc2C(F)(F)F)CC1 ): 100% (inactive)

Recorded growth (compound COc1ccc2[nH]cc(/C=N/Nc3ccc(Br)cn3)c2c1 ): 22.3% (inactive)

Recorded growth (compound CNC(=O)c1cc(-c2ccc(NC(=O)Nc3ccc(C)cc3)cc2)nc2cccnc12 ): 89.6% (inactive)

Recorded growth (compound CC(C)(C)c1ccc(NCc2cn(-c3ccc(C(=O)O)cc3)nc2-c2ccc(C#N)cc2)cc1 ): 21.4% (inactive)
